B1: library; a variant is named by its letters at N, in order (parent)
chain: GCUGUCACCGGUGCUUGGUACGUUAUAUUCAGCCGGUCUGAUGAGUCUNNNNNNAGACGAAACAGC

# Variants of: B1
# Assay overview: normalized RNA/DNA level without ligand (relative to sTRSVctl = 100) (log10 (% of sTRSVctl)); HEK293T overexpressing SLC46A1; higher = less ribozyme self-cleavage, higher mRNA level
# Reported conditions: without (6R,S)-folinic acid; ligand present: no
Give measured normalized RNA/DNA level without ligand (log10) for each item. Keep answers brief.

See these solved cases before continuing.
changes=GGGAGC result=1.83
changes=UUGGGA result=1.88
changes=GAGGCA result=2.02

Report normalized RNA/DNA level without ligand (log10) for every entry below.
1. GAGUCU
2. CGUCCC

Result block:
1: 2.02; 2: 2

Report normalized RNA/DNA level without ligand (log10) for every entry below.
1. UGAUGG
2. AAUCGC

Result block:
[1.63, 2.03]

Report normalized RNA/DNA level without ligand (log10) for every entry below.
1. AGGCCG
2. CCUAAU
3. GGACGU
4. UAGAGU
5. CAACGA
6. AUGAUG
7. AUGGCC

Result block:
1. 2.04
2. 2.04
3. 1.95
4. 1.85
5. 2.01
6. 1.87
7. 2.06
